# Tested on: Human alphaherpesvirus 1
# TEST PROTOCOL: Antiviral activity against acyclovir-resistant thymidine kinase-deficient Herpes simplex virus 1 KOS infected in HEL cells assessed as inhibition of virus-induced cytopathicity
# Format: functional, organism-based
# CONDITION DETAILS: Human alphaherpesvirus 1, KOS
Overview of recorded EC50 for various compounds

Below are worked cases with known answers.
1) C[C@H](NP(=O)(N[C@@H](C)C(=O)OCC(C)(C)C)OC[C@H]1O[C@@H](n2cnc(C(N)=O)c2N)[C@H](O)[C@@H]1O)C(=O)OCC(C)(C)C ... > 100 µM
2) Nc1nc2c(ncn2COCCO)c(=O)[nH]1 ... 23 µM
3) NC(=O)c1ncn([C@@H]2O[C@H](CO)[C@@H](O)[C@H]2O)c1N ... > 100 µM
4) C[C@H](NP(=O)(N[C@@H](C)C(=O)OCc1ccccc1)OC[C@H]1O[C@@H](n2cnc(C(N)=O)c2N)[C@H](O)[C@@H]1O)C(=O)OCc1ccccc1 ... > 100 µM
5) CCCCCc1ccc(-c2cc3cn([C@H]4C[C@H](O)[C@@H](COP(=O)(N[C@@H](C)C(=O)OCc5ccccc5)N[C@@H](C)C(=O)OCc5ccccc5)O4)c(=O)nc3o2)cc1 ... > 100 µM

Briefly, EC50 measured for `C[C@H](NP(=O)(N[C@@H](C)C(=O)OCC(C)(C)C)OCCOCn1cnc2c(=O)[nH]c(N)nc21)C(=O)OCC(C)(C)C` : 20 µM

Briefly, EC50 measured for `COC(=O)[C@H](C)NP(=O)(N[C@@H](C)C(=O)OC)OC[C@H]1O[C@@H](n2cnc(C(N)=O)c2N)[C@H](O)[C@@H]1O` : > 100 µM

Briefly, EC50 measured for `C[C@H](NP(=O)(N[C@@H](C)C(=O)OCc1ccccc1)OCCOCn1cnc2c(=O)[nH]c(N)nc21)C(=O)OCc1ccccc1` : 25 µM

---

# System: Human immunodeficiency virus 2
# TEST PROTOCOL: Antiviral activity against HIV2 ROD infected in human CEM cells assessed as virus-induced giant cell formation after 4 days by microscopic analysis
# Assay type: functional, organism-based
# CONDITION DETAILS: Human immunodeficiency virus 2, ISOLATE ROD, CCRF-CEM, 96 h
PROPERTY MEASURED: pEC50
Scale: negative log10 of molar concentration, which is what pEC50 denotes.

Below are worked cases with known answers.
1. C[C@H](NP(=O)(N[C@@H](C)C(=O)OCC(C)(C)C)OC[C@@H]1C=C[C@H](n2cnc3c(NC4CC4)nc(N)nc32)C1)C(=O)OCC(C)(C)C ... 5.92
2. C[C@H](NP(=O)(N[C@@H](C)C(=O)OCC(C)(C)C)OC[C@@H]1CC[C@H](n2cnc3c(N)ncnc32)O1)C(=O)OCC(C)(C)C ... 7.31
3. C[C@H](NP(=O)(N[C@@H](C)C(=O)OCc1ccccc1)OC[C@@H]1C=C[C@H](n2cnc3c(NC4CC4)nc(N)nc32)C1)C(=O)OCc1ccccc1 ... 5.96
4. Cc1cn([C@H]2C[C@H](N=[N+]=[N-])[C@@H](CO)O2)c(=O)[nH]c1=O ... 7.17
5. Cc1cn([C@H]2C[C@H](N=[N+]=[N-])[C@@H](COP(=O)(N[C@@H](C)C(=O)OCC(C)(C)C)N[C@@H](C)C(=O)OCC(C)(C)C)O2)c(=O)[nH]c1=O ... 7.89

# `Cc1cn([C@H]2C[C@H](N=[N+]=[N-])[C@@H](COP(=O)(N[C@@H](C)C(=O)OCc3ccccc3)N[C@@H](C)C(=O)OCc3ccccc3)O2)c(=O)[nH]c1=O` with Human immunodeficiency virus 2: pEC50 is 7.52

# `Cc1cn([C@H]2C=C[C@@H](COP(=O)(N[C@@H](C)C(=O)OCc3ccccc3)N[C@@H](C)C(=O)OCc3ccccc3)O2)c(=O)[nH]c1=O` with Human immunodeficiency virus 2: pEC50 is 7.02

# `Cc1cn([C@H]2C=C[C@@H](COP(=O)(N[C@@H](C)C(=O)OCC(C)(C)C)N[C@@H](C)C(=O)OCC(C)(C)C)O2)c(=O)[nH]c1=O` with Human immunodeficiency virus 2: pEC50 is 6.85

# `Nc1ncnc2c1ncn2[C@H]1CC[C@@H](CO)O1` with Human immunodeficiency virus 2: pEC50 is 5.55

# `Cc1cn([C@H]2C=C[C@@H](CO)O2)c(=O)[nH]c1=O` with Human immunodeficiency virus 2: pEC50 is 6.24

# `Nc1ccn([C@@H]2CS[C@H](CO)O2)c(=O)n1` with Human immunodeficiency virus 2: pEC50 is 6.74

# `Nc1nc(NC2CC2)c2ncn([C@H]3C=C[C@@H](CO)C3)c2n1` with Human immunodeficiency virus 2: pEC50 is 4.74

# `Cc1cn([C@H]2C=C[C@@H](COP(=O)(N[C@@H](C)C(=O)OC3CCCCC3)N[C@@H](C)C(=O)OC3CCCCC3)O2)c(=O)[nH]c1=O` with Human immunodeficiency virus 2: pEC50 is 6.42
